The reported numbers originate from the NIST ThermoML archive (doi:10.1016/j.tca.2013.08.016).

test: refractive index (Na D-line) (dimensionless); φn = volume fraction of the nth substance listed
experimental-parameters: 303.15 K; 101 kPa; Liquid; Standard Abbe refractometry; φ2 = 0

compound: CCO [ethanol] + CCCC[n+]1cccc(C)c1.F[B-](F)(F)F
refractive index: 1.35702
//
compound: CCO [ethanol] + CCCC[n+]1ccc(C)cc1.F[B-](F)(F)F
refractive index: 1.35702
//
compound: CO [methanol] + CCCC[n+]1ccccc1.F[B-](F)(F)F
refractive index: 1.32433
//
compound: CO [methanol] + CCCC[n+]1ccc(C)cc1.F[B-](F)(F)F
refractive index: 1.32433
//
compound: CCO [ethanol] + CCCC[n+]1ccccc1.F[B-](F)(F)F
refractive index: 1.35702
//
compound: CO [methanol] + CCCC[n+]1cccc(C)c1.F[B-](F)(F)F
refractive index: 1.32433
